LC retention time for assorted molecules
# method: RP, Thermo Scientific Acclaim RSLC 120 C18, 100 × 2.1 mm, 2.2 µm, 30 °C, 0.2 mL/min, estimated dead time 1.1 min; A: 90% water + 10% methanol + 0.01% formic acid + 5 mM ammonium formate, pH 3.61; B: methanol + 0.01% formic acid + 5 mM ammonium formate, pH 3.61; gradient (min/%B) 0/1 1/1 2/39 13/99.9 15/99.9 15.1/1 20.1/1
# test_context: stereoisomer not certain
quantity: LC retention time

> print(dat)
                                   molecule  measured.value
1  COC1=CC(=O)CC(C)C12Oc1c(Cl)c(OC)cc(OC)c1C2=O (centres undefined)        8.05 min
2  CC1CN(C2CCC(C#N)(c3ccc(F)cc3)CC2)CCC1(C(=O)O)c1ccccc1 (centres undefined)        6.95 min
3  CCCc1nn(C)c2c(=O)[nH]c(-c3cc(S(=O)(=O)N4CCN(CCO)CC4)ccc3OCC)nc12 [Sildenafil-Hydroxyhomo]        7.83 min
4  CN1C(=O)CCC1c1cccnc1 (centres undefined)        3.75 min
5           CN(C)CCC=C1c2ccccc2C=Cc2ccccc21        7.95 min
6                  C1COC(NC(C2CC2)C2CC2)=N1         4.4 min
7  O=C(c1cccc2ccccc12)c1cn(CCN2CCOCC2)c2ccccc12        9.88 min
8  CCNc1nc(NC(C)C)[nH]c(=O)n1 [Atrazine-2-hydroxy]        5.03 min
9  O=C(Nc1ccc([N+](=O)[O-])cc1Cl)c1cc(Cl)ccc1O [Niclosamide]        12.6 min

====

# method: RP, Thermo Scientific Acclaim RSLC 120 C18, 100 × 2.1 mm, 2.2 µm, 30 °C, 0.2 mL/min, estimated dead time 1.1 min; A: 90% water + 10% methanol + 0.01% formic acid + 5 mM ammonium formate, pH 3.61; B: methanol + 0.01% formic acid + 5 mM ammonium formate, pH 3.61; gradient (min/%B) 0/1 1/1 2/39 13/99.9 15/99.9 15.1/1 20.1/1
# test_context: stereoisomer not certain
Listed here are compounds together with their documented LC retention time.
quantity: LC retention time

> print(dat)
                                    compound  measured.value
 1  COc1ccc2c(c1)N(CC(C)CN(C)C)c1ccccc1S2 (stereo not drawn) [Levomepromazine]        8.14 min
 2  CN(C)CCOC(=O)C(c1ccccc1)C1(O)CCCC1 (stereo not drawn) [Cyclopentolate]        6.16 min
 3  CC(=O)OCC(=O)C12N=C(C)OC1CC1C3CCC4=CC(=O)C=CC4(C)C3C(O)CC12C (stereo not drawn) [Deflazacort]        9.35 min
 4  CN(C)Cc1nnc2n1-c1ccc(Cl)cc1C(c1ccccc1)=NC2 [Adinazolam]        8.28 min
 5         CC(=O)NCCCS(=O)(=O)O [Acamprosat]         1.4 min
 6  CC(C)N(C(=O)C(=O)O)c1ccccc1 [Propachlor-OXA]        5.13 min
 7  CC(=O)N=c1sc(S(N)(=O)=O)nn1C [Methazolamide]        4.28 min
 8  COc1ccc(C2Sc3ccccc3N(CCN(C)C)C(=O)C2OC(C)=O)cc1 (stereo not drawn) [Diltiazem]        7.18 min
 9  COC=C(C(=O)OC)c1ccccc1Oc1cc(Oc2ccccc2C#N)ncn1 [Azoxystrobin]        9.02 min
10  CCCN(CCOc1c(Cl)cc(Cl)cc1Cl)C(=O)n1ccnc1 [Prochloraz]        11.2 min
11  CCC=CCC1=C(C)C(OC(=O)C2C(C=C(C)C(=O)OC)C2(C)C)CC1=O (stereo not drawn) [Pyrethrins: Jasmolin II]        12.2 min
12  COC(=O)C1C(O)CCC2CN3CCc4c([nH]c5ccccc45)C3CC21 (stereo not drawn) [Yohimbine]        5.08 min
13                Nc1nc(N)nc(N)n1 [Melamine]        1.45 min
14  CC(Cc1ccc(O)cc1)NCC(O)c1cc(O)cc(O)c1 (stereo not drawn) [Fenoterol]        3.61 min
15  CCC(N)Cc1c[nH]c2ccccc12 (stereo not drawn) [ET- alpha]        5.04 min
16  COc1ccc(Oc2ccc(NC(=O)N(C)C)cc2)cc1 [Difenoxuron]        8.43 min
17  COP(=S)(OC)Oc1ccc(S(C)=O)c(C)c1 (stereo not drawn) [Fenthion-sulfoxide]        7.28 min
18  CCN(CC)CCOC(=O)C(O)(c1ccccc1)c1ccccc1 [Benactyzine]        6.08 min
19  CCc1nn(CCCN2CCN(c3cccc(Cl)c3)CC2)c(=O)n1CCOc1ccccc1 [Nefazodone]        9.95 min
20  O=C1NCN(c2ccccc2)C12CCN(CCCC(c1ccc(F)cc1)c1ccc(F)cc1)CC2 [Fluspirilen]        9.19 min
21          Cc1ccsc1C=CC1=NCCCN1C [Morantel]        4.36 min
22  COc1ccc2c(c1)C13CCCCC1C(C2)N(C)CC3 (stereo not drawn) [Dextromethorphan]        6.51 min
23  OC(c1ccc(Cl)cc1)(c1ccc(Cl)cc1)C(Cl)(Cl)Cl [Dicofol]        11.8 min
24  CC(C)CC(C)Nc1ccc(Nc2ccccc2)cc1 (stereo not drawn) [Diphenylamin-4-(dimethylbutylamino) (6PPD)]        9.92 min
25  CCOc1cc(C(C)(C)C)ccc1C1COC(c2c(F)cccc2F)=N1 (stereo not drawn) [Etoxazole]        12.8 min
26  COc1cc2c(cc1OC)CC(=O)N(CCCN(C)CC1Cc3cc(OC)c(OC)cc31)CC2 (stereo not drawn) [Ivabradine]        5.02 min
27  CCOP(=O)(OCC)Oc1ccc([N+](=O)[O-])cc1 [Paraoxon]        8.01 min
28  CCC(=C(c1ccc(O)cc1)c1ccc(OCCN(C)C)cc1)c1ccccc1 [4-Hydroxytamoxifen]         9.1 min
29  C=CCN1CCCC1CNC(=O)c1cc2n[nH]nc2cc1OC (stereo not drawn) [Alizapride]        3.62 min
30  CC(=O)Nc1ccc(OC(=O)c2ccccc2OC(C)=O)cc1 [Benorilate]        7.41 min
31  CNC(=O)C=C(C)OP(=O)(OC)OC [Monocrotophos]        4.36 min
32  Cc1c(Nc2ncccc2C(=O)O)cccc1C(F)(F)F [Flunixin]        9.09 min
33  COc1ccc(OC)c(CC(C)N)c1 (stereo not drawn) [2-5-DMA]        4.78 min
34  Cc1ccc(Cl)c(Nc2ccccc2C(=O)O)c1Cl [Meclofenamic acid]        11.3 min
35  CCCOc1ccc(C(=O)CCN2CCCCC2)cc1 [Propipocaine]        6.24 min
36  COc1ccc2[nH]c(C)c(CCN(C)C)c2c1 [MeO-TMT (5-)]        4.19 min
37  COc1cc(CNC(=O)CCCCC=CC(C)C)ccc1O [Capsaicin]        9.83 min
38  COc1ccc2[nH]cc(CCNC(C)=O)c2c1 [Melatonin]        5.36 min
